Cited source: patent US20110039762A1

Tested on: S. pneumoniae
Assay: Kill or inhibit growth/proliferation; morphology, biofilm and growth disruption (Tables 5, 6); further: test concentration or dose not given here
Assay type: cell-based, Streptococcus pneumoniae
Set-up: key: A: Peptide aggregates; B: Less hyphal formation; Clumps; Diffuse clumps and small polyps; F: Diffuse growth; H: Thin; I: Growth inhibition; Microcolony formation; Rippled; Small polyps; Thick; W: Halo formation on top, microlonies on bottom
Quantity: Organism, effect

Previously resolved entries follow.
- Substance: "PF-380: peptide having multiple activities (chain 1 KKIIPLITLFVVTLVG; chain 2 KKIIPLITLFVVTLVG; Peptide with targeting and/or antimicrobial activity)"
  Quantity: "Organism, effect"
  Reading: "S. pneumoniae (D)"
- Substance: "FQKPFTGEEVEDFQDDDEIPTII [PF-437]"
  Quantity: "Organism, effect"
  Reading: "S. pneumoniae (I)"
- Substance: "MGIIAGIIKFIKGLIEKFTGK [PF-006]"
  Quantity: "Organism, effect"
  Reading: "S. pneumoniae (R)"
- Substance: "PF-357: peptide having multiple activities (chain 1 MLTIIIGFIFWTMTLMLGYLIGEREGRKHE; chain 2 MLTIIIGFIFWTMTLMLGYLIGEREGRKHE; Peptide with targeting and/or antimicrobial activity)"
  Quantity: "Organism, effect"
  Reading: "S. pneumoniae (M)"
- Substance: "PF-445: peptide having multiple activities (chain 1 ASMTKRLKLAMSKV; chain 2 ASMTKRLKLAMSKV; Peptide with targeting and/or antimicrobial activity)"
  Quantity: "Organism, effect"
  Reading: "S. pneumoniae (M)"

Record Organism, effect for all entries; do not skip any.
1. PF-355: peptide having multiple activities (chain 1 WIAIGLLLYFSLKNQ; chain 2 WIAIGLLLYFSLKNQ; Peptide with targeting and/or antimicrobial activity)
2. PF-517: peptide having multiple activities (chain 1 VKPTMTASLISTVC; chain 2 VKPTMTASLISTVC; Peptide with targeting and/or antimicrobial activity)
3. PF-428: peptide having multiple activities (ENEESIF; Peptide with targeting and/or antimicrobial activity)
4. PF-639: peptide having multiple activities (chain 1 QATQIKSWIDRLLVSED; chain 2 QATQIKSWIDRLLVSED; Peptide with targeting and/or antimicrobial activity)
5. PF-546: peptide having multiple activities (chain 1 PIIAPTIKTQIQ; chain 2 PIIAPTIKTQIQ; Peptide with targeting and/or antimicrobial activity)
6. PF-622: peptide having multiple activities (TREDVFSVRLINNIVNKQA; Peptide with targeting and/or antimicrobial activity)
7. TKKIELKRFVDAFVKKSYENYILERELKKLIKAINEELPTK [PF-600]

Resp:
1: S. pneumoniae (D); 2: S. pneumoniae (M); 3: S. pneumoniae (H); 4: S. pneumoniae (I); 5: S. pneumoniae (D); 6: S. pneumoniae (M); 7: S. pneumoniae (R)

Give measured Organism, effect for every item shown.
1. MIHLTKQNTMEALHFIKQFYDMFFILNFNV [PF-040]
2. PF-423: peptide having multiple activities (AGKKERLLSFREQFLNKNKKK; Peptide with targeting and/or antimicrobial activity)

Resp:
1: S. pneumoniae (D); 2: S. pneumoniae (H)
